- System: HL60 cells
- Test Summary: Determination of the IC50 in HL60 cells (trypan blue exclusion, light/dark)
- Assay type: cell-based, human
- Study Conditions: 10–100 µM, 4 h incubation in the dark, washed, 470 nm LED 6 min (6.9 ± 0.9 J cm-2), probit regression, n = 3, mean ± SEM, read-out: IC50 after light irradiation

{"columns": ["Item Smiles", "IC50"],
 "data": [
  ["C#Cc1ccnc(-c2ccccn2)c1.[Cl-].[Cl-].[Ru+2].c1ccc(-c2ccccn2)nc1.c1ccc(-c2ccccn2)nc1", "> 100 µM"]
]}
